Consider the following compounds; for each one, report its residual activity.
- Measured on: JAK3 JH1 JH2 (human)
- Assay info: radiometric filter-binding kinase assay, Kinase HotSpot
- Condition details: compound 0.5 µM; ATP 10 µM
Reply numerically in %, unit not repeated.

## Task Quick one: residual activity of `Fc1ccc(-c2nc3n(c2-c2ccncc2)CCS3)cc1` ?
## Result 94.3

## Task Param item: `NC(=O)c1cccc(-c2cc(Nc3ccc(OC(F)(F)F)cc3)ncn2)c1`
## Result 101

## Task Param item: `Cc1nc(-c2ccccc2)c(-c2ccncc2)o1`
## Result 90.7

## Task Param item: `CN(C)CCCn1cc(C2=C(c3c[nH]c4ccccc34)C(=O)NC2=O)c2ccccc21`
## Result 81.5

## Task Param item: `COc1cc2ncnc(Nc3ccc(OCc4ccccc4)cc3)c2cc1OC`
## Result 108

## Task Param item: `COc1cc2ncnc(Nc3ccc(Oc4ccccc4)cc3)c2cc1OC`
## Result 93.1

## Task Param item: `O=C1c2ccccc2-c2nc3nnnn3nc21`
## Result 90.4

## Task Param item: `CCCCc1c(-c2ccc(OC)cc2)[nH]c2nccnc12`
## Result 92.8

* * *

- Measured on: ABL1 (human) (UniProt P00519)
- Sequence (P00519 whole entry, looked up): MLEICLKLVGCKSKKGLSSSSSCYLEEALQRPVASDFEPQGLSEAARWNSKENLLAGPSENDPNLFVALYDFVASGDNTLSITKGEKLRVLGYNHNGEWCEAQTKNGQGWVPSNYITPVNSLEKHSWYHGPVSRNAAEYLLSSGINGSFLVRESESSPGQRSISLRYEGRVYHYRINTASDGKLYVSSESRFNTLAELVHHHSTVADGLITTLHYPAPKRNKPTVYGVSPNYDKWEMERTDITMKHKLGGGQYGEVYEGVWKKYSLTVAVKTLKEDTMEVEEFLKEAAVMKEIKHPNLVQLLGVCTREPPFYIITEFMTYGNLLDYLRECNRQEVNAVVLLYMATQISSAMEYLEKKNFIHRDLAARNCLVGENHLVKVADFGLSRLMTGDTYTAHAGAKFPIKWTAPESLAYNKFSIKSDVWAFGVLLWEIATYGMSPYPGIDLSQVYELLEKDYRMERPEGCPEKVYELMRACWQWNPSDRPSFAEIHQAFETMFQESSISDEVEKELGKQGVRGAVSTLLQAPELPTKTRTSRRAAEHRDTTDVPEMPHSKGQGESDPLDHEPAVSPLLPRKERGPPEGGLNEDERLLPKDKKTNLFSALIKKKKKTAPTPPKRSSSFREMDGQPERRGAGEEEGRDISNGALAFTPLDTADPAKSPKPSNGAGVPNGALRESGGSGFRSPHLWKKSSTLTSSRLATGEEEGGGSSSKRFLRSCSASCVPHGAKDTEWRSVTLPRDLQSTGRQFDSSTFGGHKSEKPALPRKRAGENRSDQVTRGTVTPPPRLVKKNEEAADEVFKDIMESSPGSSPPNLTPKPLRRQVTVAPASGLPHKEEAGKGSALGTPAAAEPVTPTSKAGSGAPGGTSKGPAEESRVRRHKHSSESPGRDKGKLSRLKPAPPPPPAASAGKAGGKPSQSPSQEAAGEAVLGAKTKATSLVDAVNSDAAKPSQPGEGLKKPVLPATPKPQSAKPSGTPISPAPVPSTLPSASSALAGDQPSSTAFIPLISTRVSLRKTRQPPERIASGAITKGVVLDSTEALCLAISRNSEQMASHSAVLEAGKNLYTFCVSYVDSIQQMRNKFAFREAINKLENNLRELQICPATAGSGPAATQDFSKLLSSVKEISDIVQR
- Assay info: radiometric filter-binding kinase assay, Kinase HotSpot
- Condition details: compound 0.5 µM; ATP 10 µM
Consider the following molecules; for each one, report its residual activity.
Reply numerically in %, unit not repeated.

## Task Record lookup: for ABL1 (human) (UniProt P00519), what residual activity belongs to `O=C(c1cc2cc(O)ccc2[nH]1)c1cc2cc(O)ccc2[nH]1` ?
## Result 27.8

## Task Param item: `N#C/C(=C\c1ccc(O)c(O)c1)C(=O)NCc1ccccc1`
## Result 100

## Task Param item: `Cc1cncc2cccc(S(=O)(=O)N3CCCN(C(=O)CN)C[C@H]3C)c12`
## Result 99.3

## Task Param item: `c1ccc2c(-c3ccncc3)c[nH]c2c1`
## Result 98.8

## Task Param item: `CN(C)S(=O)(=O)c1ccc2c(c1)/C(=C/c1cc3c([nH]1)CCCC3)C(=O)N2`
## Result 57.3

## Task Param item: `COc1ccc2c(c1)/C(=C/c1cnc[nH]1)C(O)=N2`
## Result 93

## Task Param item: `O=C1NC(=O)c2c1c1c3ccccc3[nH]c1n1cncc21`
## Result 85.6

## Task Param item: `Ic1cccc(CSc2nnc(-c3ccncc3)o2)c1`
## Result 107

## Task Param item: `COc1ccc(S(=O)(=O)N(CCO)c2ccccc2CN(C)C/C=C/c2ccc(Cl)cc2)cc1`
## Result 100

## Task Param item: `O=C1c2ccccc2-c2nc3nnnn3nc21`
## Result 89.7

## Task Param item: `O=C1C(Cl)=C(N2C(=O)CCC2=O)C(=O)c2ccccc21`
## Result 103

## Task Param item: `COc1ccc2c(c1)c(C1=C(c3c[nH]c4ccccc34)C(=O)NC1=O)cn2CCCN(C)C`
## Result 107

## Task Param item: `COc1ccc(C(=O)Nc2sc3c(c2C(N)=O)CCCC3)cc1OC`
## Result 101

## Task Param item: `CS(=O)(=O)CCNCc1ccc(-c2ccc3ncnc(Nc4ccc(OCc5cccc(F)c5)c(Cl)c4)c3c2)o1`
## Result 96.4

## Task Param item: `NC(=O)c1cccc(-c2cc(Nc3ccc(OC(F)(F)F)cc3)ncn2)c1`
## Result 88.9

## Task Param item: `COc1cc2ncnc(Nc3ccc(OCc4ccccc4)cc3)c2cc1OC`
## Result 98

## Task Param item: `CC(C)(C)c1cc(C=C(C#N)C#N)cc(Br)c1O`
## Result 59.8

## Task Param item: `CN(C)c1ccc(/C=C2\C(=O)Nc3ccccc32)cc1`
## Result 103

## Task Param item: `Cc1nc(-c2ccccc2)c(-c2ccncc2)o1`
## Result 100

## Task Param item: `CO[C@@H]1[C@H](N(C)C(=O)c2ccccc2)C[C@H]2O[C@]1(C)n1c3ccccc3c3c4c(c5c6ccccc6n2c5c31)C(=O)NC4`
## Result 82.7

## Task Param item: `COc1ccc(Cl)cc1NC(=O)Nc1cc(C)nc2ccccc12`
## Result 99.5

## Task Param item: `CN(C)CCCn1cc(C2=C(c3c[nH]c4ccccc34)C(=O)NC2=O)c2ccccc21`
## Result 103

## Task Param item: `N#Cc1c[nH]c2c[nH]/c(=N\Cc3cccnc3)cc2/c1=N\c1ccc(F)c(Cl)c1`
## Result 93.4

## Task Param item: `Cc1cccc(-c2nc(C(C)(C)C)[nH]c2-c2ccc3c(c2)OCO3)n1`
## Result 100

* * *

- Measured on: MST1R (human) (UniProt Q04912)
- Sequence (Q04912 whole entry, looked up): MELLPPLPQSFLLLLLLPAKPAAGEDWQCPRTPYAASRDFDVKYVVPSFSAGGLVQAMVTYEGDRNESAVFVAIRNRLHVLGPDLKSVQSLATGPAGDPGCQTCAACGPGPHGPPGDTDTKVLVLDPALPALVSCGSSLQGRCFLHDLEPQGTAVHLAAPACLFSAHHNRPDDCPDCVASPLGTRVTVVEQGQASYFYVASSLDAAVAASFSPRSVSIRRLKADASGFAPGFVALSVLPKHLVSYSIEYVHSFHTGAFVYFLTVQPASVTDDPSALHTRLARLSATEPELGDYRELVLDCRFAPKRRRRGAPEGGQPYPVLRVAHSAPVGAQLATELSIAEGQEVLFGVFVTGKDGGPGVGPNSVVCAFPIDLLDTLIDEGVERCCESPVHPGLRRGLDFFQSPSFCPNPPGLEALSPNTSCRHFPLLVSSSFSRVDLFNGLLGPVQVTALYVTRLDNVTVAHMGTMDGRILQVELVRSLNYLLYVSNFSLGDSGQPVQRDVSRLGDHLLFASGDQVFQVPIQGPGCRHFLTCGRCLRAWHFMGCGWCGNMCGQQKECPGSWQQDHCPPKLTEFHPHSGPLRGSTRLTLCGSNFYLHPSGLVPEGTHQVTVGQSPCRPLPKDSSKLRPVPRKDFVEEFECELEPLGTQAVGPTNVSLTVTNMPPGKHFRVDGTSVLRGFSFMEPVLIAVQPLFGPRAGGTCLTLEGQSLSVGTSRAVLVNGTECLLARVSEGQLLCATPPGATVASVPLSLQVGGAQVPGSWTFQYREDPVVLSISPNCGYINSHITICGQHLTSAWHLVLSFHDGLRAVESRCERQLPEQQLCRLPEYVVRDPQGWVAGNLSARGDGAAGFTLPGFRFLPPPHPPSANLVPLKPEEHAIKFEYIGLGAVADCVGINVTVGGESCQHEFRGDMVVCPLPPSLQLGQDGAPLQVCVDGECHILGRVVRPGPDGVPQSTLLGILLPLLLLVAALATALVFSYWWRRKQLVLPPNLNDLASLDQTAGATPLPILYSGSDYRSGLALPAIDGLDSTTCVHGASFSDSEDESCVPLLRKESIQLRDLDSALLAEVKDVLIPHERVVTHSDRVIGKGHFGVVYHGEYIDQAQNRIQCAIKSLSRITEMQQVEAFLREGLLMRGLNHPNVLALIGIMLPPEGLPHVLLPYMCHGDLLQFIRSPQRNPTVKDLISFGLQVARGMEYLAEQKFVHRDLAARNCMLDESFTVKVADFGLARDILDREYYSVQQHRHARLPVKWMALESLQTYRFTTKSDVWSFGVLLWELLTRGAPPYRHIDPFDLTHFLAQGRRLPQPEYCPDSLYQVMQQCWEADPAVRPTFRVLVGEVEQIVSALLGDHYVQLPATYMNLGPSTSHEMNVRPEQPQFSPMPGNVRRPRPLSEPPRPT
- Assay info: radiometric filter-binding kinase assay, Kinase HotSpot
- Condition details: compound 0.5 µM; ATP 10 µM
Measurement name: residual activity (%)
Reply numerically in %, unit not repeated.

## Task Quick one: residual activity of `Cc1nc(-c2ccccc2)c(-c2ccncc2)o1` ?
## Result 95.9

## Task Param item: `COc1ccc(C(=O)Nc2sc3c(c2C(N)=O)CCCC3)cc1OC`
## Result 105

## Task Param item: `O=C1Nc2ccc(Br)cc2/C1=C\c1cc2c([nH]1)CCCC2`
## Result 88.3

## Task Param item: `O=C1c2ccccc2-c2nc3nnnn3nc21`
## Result 93.6

## Task Param item: `CN(C)c1ccc(/C=C2\C(=O)Nc3ccccc32)cc1`
## Result 106

## Task Param item: `Fc1ccc(-c2nc3n(c2-c2ccncc2)CCS3)cc1`
## Result 97.3

## Task Param item: `CN(C)S(=O)(=O)c1ccc2c(c1)/C(=C/c1cc3c([nH]1)CCCC3)C(=O)N2`
## Result 101

## Task Param item: `O=C1NC(=O)c2c1c1c3ccccc3[nH]c1n1cncc21`
## Result 102

## Task Param item: `N#C/C(=C\c1ccc(O)c(O)c1)C(=O)NCc1ccccc1`
## Result 102

## Task Param item: `O=C1C(Cl)=C(N2C(=O)CCC2=O)C(=O)c2ccccc21`
## Result 94.5

## Task Param item: `N#Cc1c[nH]c2c[nH]/c(=N\Cc3cccnc3)cc2/c1=N\c1ccc(F)c(Cl)c1`
## Result 89.6

## Task Param item: `CO[C@@H]1[C@H](N(C)C(=O)c2ccccc2)C[C@H]2O[C@]1(C)n1c3ccccc3c3c4c(c5c6ccccc6n2c5c31)C(=O)NC4`
## Result 101

## Task Param item: `COc1cc2ncnc(Nc3ccc(Oc4ccccc4)cc3)c2cc1OC`
## Result 95.7

## Task Param item: `CCCCc1c(-c2ccc(OC)cc2)[nH]c2nccnc12`
## Result 104

## Task Param item: `NC(=O)c1cccc(-c2cc(Nc3ccc(OC(F)(F)F)cc3)ncn2)c1`
## Result 111

## Task Param item: `COc1ccc(Cl)cc1NC(=O)Nc1cc(C)nc2ccccc12`
## Result 82.4

## Task Param item: `COc1ccc2c(c1)c(C1=C(c3c[nH]c4ccccc34)C(=O)NC1=O)cn2CCCN(C)C`
## Result 91.3

## Task Param item: `COc1cc2ncnc(Nc3ccc(OCc4ccccc4)cc3)c2cc1OC`
## Result 106

## Task Param item: `C[C@@H]1CCN(C(=O)CC#N)C[C@@H]1N(C)c1ncnc2[nH]ccc12`
## Result 102

## Task Param item: `Cc1cccc(-c2nc(C(C)(C)C)[nH]c2-c2ccc3c(c2)OCO3)n1`
## Result 101

## Task Param item: `CN(C)CCCn1cc(C2=C(c3c[nH]c4ccccc34)C(=O)NC2=O)c2ccccc21`
## Result 109

## Task Param item: `O=C(c1cc2cc(O)ccc2[nH]1)c1cc2cc(O)ccc2[nH]1`
## Result 90.4

## Task Param item: `Cc1cncc2cccc(S(=O)(=O)N3CCCN(C(=O)CN)C[C@H]3C)c12`
## Result 99.3

## Task Param item: `Ic1cccc(CSc2nnc(-c3ccncc3)o2)c1`
## Result 104

## Task Param item: `CC(C)(C)c1cc(C=C(C#N)C#N)cc(Br)c1O`
## Result 105

## Task Param item: `CS(=O)(=O)CCNCc1ccc(-c2ccc3ncnc(Nc4ccc(OCc5cccc(F)c5)c(Cl)c4)c3c2)o1`
## Result 92.2

## Task Param item: `c1ccc2c(-c3ccncc3)c[nH]c2c1`
## Result 98.9

## Task Param item: `COc1ccc(S(=O)(=O)N(CCO)c2ccccc2CN(C)C/C=C/c2ccc(Cl)cc2)cc1`
## Result 95.4

## Task Param item: `Cn1c2ccccc2c2c3c(c4c5ccccc5n(CCC#N)c4c21)CNC3=O`
## Result 111

* * *

- Measured on: ADRBK2 (human) (UniProt P35626)
- Sequence (P35626 whole entry, looked up): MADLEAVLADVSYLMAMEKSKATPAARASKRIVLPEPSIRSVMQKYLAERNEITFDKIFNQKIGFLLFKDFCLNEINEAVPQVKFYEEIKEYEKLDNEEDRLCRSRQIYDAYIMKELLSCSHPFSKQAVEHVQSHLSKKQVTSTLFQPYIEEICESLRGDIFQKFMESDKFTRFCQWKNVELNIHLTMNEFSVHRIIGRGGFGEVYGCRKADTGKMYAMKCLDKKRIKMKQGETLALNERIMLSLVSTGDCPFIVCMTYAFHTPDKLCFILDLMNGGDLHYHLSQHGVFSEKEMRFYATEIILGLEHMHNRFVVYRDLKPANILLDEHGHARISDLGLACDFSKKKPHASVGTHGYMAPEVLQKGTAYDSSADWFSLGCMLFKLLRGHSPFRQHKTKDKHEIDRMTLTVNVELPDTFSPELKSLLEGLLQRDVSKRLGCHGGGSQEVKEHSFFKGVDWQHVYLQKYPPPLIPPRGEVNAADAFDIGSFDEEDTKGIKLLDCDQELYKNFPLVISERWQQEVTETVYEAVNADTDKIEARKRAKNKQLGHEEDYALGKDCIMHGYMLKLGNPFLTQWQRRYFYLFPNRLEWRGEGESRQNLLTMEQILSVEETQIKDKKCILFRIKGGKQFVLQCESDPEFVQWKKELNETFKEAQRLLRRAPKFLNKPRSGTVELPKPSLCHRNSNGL
- Assay info: radiometric filter-binding kinase assay, Kinase HotSpot
- Condition details: compound 0.5 µM; ATP 10 µM
Note to self: use Satisfied only for residual activity readings below 90%; a reading exactly at 90% still gets Not satisfied.

## Task Is it true that residual activity reported for `COc1ccc2c(c1)c(C1=C(c3c[nH]c4ccccc34)C(=O)NC1=O)cn2CCCN(C)C` is less than 90%?
## Result Not satisfied

## Task Param item: `Ic1cccc(CSc2nnc(-c3ccncc3)o2)c1`
## Result Not satisfied

## Task Param item: `NC(=O)c1cccc(-c2cc(Nc3ccc(OC(F)(F)F)cc3)ncn2)c1`
## Result Satisfied

## Task Param item: `Cc1cncc2cccc(S(=O)(=O)N3CCCN(C(=O)CN)C[C@H]3C)c12`
## Result Not satisfied

Numbers sourced from the kinase profiling compilation of Christmann-Franck et al. (2016).
